target-system: human KCNQ5 (Homo sapiens, UniProt Q9NR82)
Construct: expressed in transfected cells; host or cells: HEK293
protocol-text: KCNQ5 thallium influx FLIPR TETRA assay
Type: cell-based
measurement-parameters: maximum response relative to 10 μM retigabine (=100%); read-out: KCNQ5 Max. %
endpoint: Emax (%)

CC(C)c1nc2ccccc2c(=O)n1NC(=O)COCC[C@@H]1CC[C@H]2C[C@@H]1C2(C)C [Example 10]: 335
CCc1nc2ccccc2c(=O)n1NC(=O)C[C@@H]1CC[C@H]2C[C@@H]1C2(C)C [Example 2]: 294
CC1(C)[C@H]2CC[C@@H](CC(=O)Nn3c(C4CC4)nc4cc(F)ccc4c3=O)[C@@H]1C2 [Example 3]: 36
CC1(C)[C@H]2CC[C@@H](CC(=O)Nn3c(CC(F)(F)F)nc4ccccc4c3=O)[C@@H]1C2 [Example 14]: -10
CC(C)c1nc2sccc2c(=O)n1NC(=O)C[C@@H]1CC[C@H]2C[C@@H]1C2(C)C [Example 20]: 10
CCN(CC)c1nc2ccccc2c(=O)n1NC(=O)C[C@@H]1CC[C@H]2C[C@@H]1C2(C)C [Example 19]: 5

I. CC1(C)[C@H]2CC[C@@H](CC(=O)Nn3c(C4CC4)nc4ccccc4c3=O)[C@@H]1C2 [Example 5]
II. CC(C)c1nc2ccccc2c(=O)n1NC(=O)C[C@@H]1[C@H](F)C[C@H]2C[C@@H]1C2(C)C [Example 24]
Which entry shows the lesser value of Emax here, I or II ? Your answer should be the label attached to the chosen record. I

====

target-system: human KCNQ4 (Homo sapiens, UniProt P56696)
Construct: expressed in transfected cells; host or cells: HEK293
protocol-text: KCNQ4 thallium influx FLIPR TETRA assay
Format: cell-based
measurement-parameters: maximum response relative to 10 μM retigabine (=100%); read-out: KCNQ4 Max. %
endpoint: Emax (%)

Example entries and their recorded answers appear below.
Cc1nc2ccccc2c(=O)n1NC(=O)C[C@@H]1CC[C@H]2C[C@@H]1C2(C)C: 3
CCc1nc2ccccc2c(=O)n1NC(=O)C[C@@H]1CC[C@H]2C[C@@H]1C2(C)C: 22
CC(SC[C@@H]1CC[C@H]2C[C@@H]1C2(C)C)C(=O)Nn1c(C(C)C)nc2ccccc2c1=O (stereo partly drawn): 23
CC1(C)[C@H]2CC[C@@H](CC(=O)Nn3cnc4ccccc4c3=O)[C@@H]1C2: 6
CC1(C)[C@H]2CC[C@@H](CC(=O)Nn3c(C(F)(F)F)nc4ccccc4c3=O)[C@@H]1C2: 6
CCc1nc2sccc2c(=O)n1NC(=O)C[C@@H]1CC[C@H]2C[C@@H]1C2(C)C: 5
CC1(C)[C@H]2CC[C@@H](CC(=O)Nn3c(C4CC4)nc4sccc4c3=O)[C@@H]1C2: 21
CC(C)c1nc2ccccc2c(=O)n1NC(=O)C[C@@H]1C[C@@H]2C[C@H](C1)C2(C)C: -23

P. CC(C)c1nc2ccccc2c(=O)n1NC(=O)C[C@H]1CC[C@H]2C[C@@H]1C2(C)C
Q. CCN(CC)c1nc2ccccc2c(=O)n1NC(=O)C[C@@H]1CC[C@H]2C[C@@H]1C2(C)C
Which entry shows the lesser value of Emax here, P or Q ? Your answer should be the label attached to the chosen record. Q
